Listing of recorded IC50 by entry.
Test system: SDMA in HAP1 MTAP-deleted (MTAP-null) cell line (PRMT5 inhibition)
Test: SDMA in-cell western assay, HAP1 MTAP-deleted cell line
Details: Homo sapiens, HAP1, read-out: Hap1 MTAP deleted IC50
READOUT LABEL: IC50

- CC(C)CN(Cc1ccccc1)C(=O)C(=O)Nc1cnc(N)c2cn[nH]c12 [Compound 101]: < 5 nM
- C[C@H](c1ccc(C(F)(F)C(F)(F)F)cc1F)N(C)C(=O)C(=O)Nc1cnc(N)c2cn[nH]c12 [Compound 188]: < 5 nM
- Nc1ncc(NC(=O)C(=O)N(Cc2ccc(C(F)(F)F)cn2)C2CC2)c2[nH]ncc12 [Compound 159]: < 5 nM
- C[C@@H](c1ccc(C(F)(F)C(F)(F)F)cc1)N(C)C(=O)C(=O)Nc1cnc(N)c2cn[nH]c12 [Compound 131]: 5 to 50 nM
- Cc1cc(NC(=O)C(=O)N(Cc2ccc(C(F)(F)F)cn2)[C@@H]2CCC[C@H]2OC(F)F)cnc1N [Compound 19]: < 5 nM
